Target: Glycogen synthase kinase-3 beta (Homo sapiens)
Experiment: NPC library primary assay, GSK-3β enzyme inhibitors, biochemical, Homo sapiens, LANCE Ultra TR-FRET detection (AID 1117355)
Conditions: LANCE Ultra TR-FRET kinase activity; at 20 µM (top of the series)
Measured inhibition accompanies every entry in the list below.
Dear colleague, please return just the value in %, with no unit written.

Oc1c(Cl)cc(Cl)cc1Sc1cc(Cl)cc(Cl)c1O | 81.3
Cc1cc2c(C(C)C)c(O)c(O)c(C=O)c2c(O)c1-c1c(C)cc2c(C(C)C)c(O)c(O)c(C=O)c2c1O | 7.52

Specify measured inhibition for COC(=O)Nc1nc2ccc(S(=O)c3ccccc3)cc2[nH]1 (stereo not given) .
-3.53

Output inhibition of "COc1cc2c(c(OC)c1OC)-c1ccc(OC)c(=O)cc1[C@@H](NC(C)=O)CC2"
4.13

Name the recorded inhibition of the molecule listed here: "S=c1nc[nH]c2nc[nH]c12"
20.7

Give the reported inhibition for this molecule. "O=c1c(-c2ccccc2)c1-c1ccccc1"
31.4

Name the recorded inhibition of the item "Cc1nc2ccc(CN(C)c3ccc(C(=O)N[C@@H](CCC(=O)O)C(=O)O)s3)cc2c(=O)[nH]1" in your answer.
81.3

----------
Let's look at some molecules and their measured inhibition.
Biological target: Glycogen synthase kinase-3 beta (Homo sapiens)
Experiment: NPC library primary assay, GSK-3β enzyme inhibitors, biochemical, Homo sapiens, LANCE Ultra TR-FRET detection (AID 1117355)
Conditions: LANCE Ultra TR-FRET kinase activity; at 20 µM (top of the series)
Answer in %, number only, no unit symbol.

Please review the following examples before continuing.
O=c1[nH]c(=O)n([C@H]2C[C@H](O)[C@@H](CO)O2)cc1C(F)(F)F | 17.2
CC[C@]1(O)C[C@H]2CN(CCc3c([nH]c4ccccc34)[C@@](C(=O)OC)(c3cc4c(cc3OC)N(C=O)[C@H]3[C@@](O)(C(=O)OC)[C@H](OC(C)=O)[C@]5(CC)C=CCN6CC[C@]43[C@@H]65)C2)C1 | -0.84
CCCCC1C(=O)N(c2ccccc2)N(c2ccc(O)cc2)C1=O (centres undefined) | 5.48
O=C(CCCCCCC(=O)Nc1ccccc1)NO | -28.8
CCCCCCNC(=O)n1cc(F)c(=O)[nH]c1=O | -7.61

Quick one: give measured inhibition for COc1ccc(-c2nc3ccc(C4=NNC(=O)CC4C)cc3[nH]2)cc1 (centres undefined)
-64.9

Output measured inhibition for this item: "C=C(C)[C@H]1Cc2c(ccc3c2O[C@@H]2COc4cc(OC)c(OC)cc4[C@@H]2C3=O)O1"
21.6

For the molecule "COC(=O)Nc1nc2ccc(C(=O)c3ccccc3)cc2[nH]1" , give its measured inhibition value.
25.4

Tell me inhibition reported for "COc1cc(NCc2ccc3nc(N)nc(N)c3c2C)cc(OC)c1OC"
2.46

----------
Target: Glycogen synthase kinase-3 beta (Homo sapiens)
Test: NPC library primary assay, GSK-3β enzyme inhibitors, biochemical, Homo sapiens, LANCE Ultra TR-FRET detection (AID 1117355)
Settings: LANCE Ultra TR-FRET kinase activity; at 20 µM (top of the series)
measured-parameter: inhibition (%)
Field: numeric (%). Do not append units.

// below: answered compounds
COC(=O)Nc1nc2ccc(C(=O)c3cccs3)cc2[nH]1 | 42.2
CNC(=O)c1cc(Oc2ccc(NC(=O)Nc3ccc(Cl)c(C(F)(F)F)c3)cc2)ccn1 | 47.6
CCN(CC)CCNC(=O)c1c(C)[nH]c(/C=C2\C(=O)Nc3ccc(F)cc32)c1C | 62.9

Return inhibition (reported value) for this compound: "CCCCCCCCCCCCCCCC[n+]1ccccc1"
-21.5

Fill in reported inhibition for this entry: "CC(=O)Oc1ccc(C2(c3ccc(OC(C)=O)cc3)Oc3ccccc3NC2=O)cc1"
19

State, in one line, measured inhibition of "CCN(CC)CCNc1ccc(CO)c2sc3ccccc3c(=O)c12"
24.6

// Input: "O=C1c2c(O)ccc(O)c2C(=O)c2c(NCCNCCO)ccc(NCCNCCO)c21" . Output its inhibition only.
-5.18

Give the reported inhibition for this compound. "COc1ccc2cc1Oc1ccc(cc1)C[C@H]1c3c(cc4c(c3Oc3cc5c(cc3OC)CCN(C)[C@@H]5C2)OCO4)CCN1C"
2.24

Note down inhibition recorded for "CCN(CC)CCOc1ccc(/C(=C(\Cl)c2ccccc2)c2ccccc2)cc1"
-11.9

Fill in inhibition for record "Cc1ccc([N+](=O)[O-])[c]2c1[O][Hg]2"
66.1

Name the recorded inhibition of the compound listed here: "CN(C)c1ccc2nc3ccc(=[N+](C)C)cc-3sc2c1"
-210

Return value of inhibition for input "O=c1[nH]c(=O)n([C@H]2C[C@H](O)[C@@H](CO)O2)cc1F" , no commentary.
-21.3

Item "CCCOc1ccc2nc(NC(=O)OC)[nH]c2c1" : provide inhibition
-5.09

Return inhibition for the following compound: "Cc1cc(=O)c2c(O)c3c(O)cc(=O)c4c3c3c(cc(O)c1c23)C(C)(C)C=4O"
60.6

State its inhibition: "CCc1nc(N)nc(N)c1-c1ccc(Cl)cc1"
-8.63

Complete the entry with inhibition for "[O-][n+]1ccccc1SSc1cccc[n+]1[O-]"
-25.6

# return recorded inhibition for input "COc1c(C)c2c(c(O)c1C/C=C(\C)CCC(=O)OCCN1CCOCC1)C(=O)OC2"
11.3

Please list inhibition recorded for the compound "CC[C@@]1(O)C(=O)OCc2c1cc1n(c2=O)Cc2c-1nc1ccccc1c2/C=N/OC(C)(C)C"
16.9

For the compound "COC(=O)Nc1nc2ccc(Sc3ccccc3)cc2[nH]1" , give its reported inhibition.
-21

Give reported inhibition value for "Cn1cnc([N+](=O)[O-])c1Sc1ncnc2nc[nH]c12"
-18.2
